Test system: HS 578T breast
procedure text: NCI-60 one-dose screen, 48 h (100 = growth as untreated, 0 = no growth, -100 = all killed)
measurement setup: 10 µM unless noted
This is part of a sample that, as a whole, favours compounds with a hit. Of some 83,000 tested, about 20% had one in any assay.
Classes are defined on growth with ranges lo (below 30%), mid (30% to below 70%), hi (70% or more)

{"structure": "O=C(Nc1nc2ccc(F)cc2s1)c1cccnc1Nc1ccc(Cl)cc1Cl", "group label": "lo"}
{"structure": "N/C(=N\\c1nc2ccccc2s1)NC(=O)Nc1cccc2ccccc12", "group label": "lo"}
{"structure": "COc1ccc2[nH]c(-c3ccccc3)c(/C=C(\\C#N)S(=O)(=O)c3ccccc3)c2c1", "group label": "mid"}

// bin(item) where item = "Cc1ccc(C(=O)NCCNc2nccc(-c3c(-c4cccc(F)c4)nc4sccn34)n2)cc1" mid

Which class is correct for the following compound? "[O-][n+]1c2ccccc2[n+]([O-])c2c3ccccc3[nH]c21" hi

Which band does "O=c1c2cc(F)ccc2sc2c(NCCCNCCO)nc3ccccc3c12" fall in? mid

Category of "COc1ccc(OC)c(/C=C/C(=O)N/N=C/c2ccc(Cl)cc2)c1" , please. lo

Each compound maps to one class by growth. Which class for "CN(C)CCCNc1nc2ccccc2c2c(=O)c3cc(F)ccc3sc12" ? mid

Given "COc1ccc(OC)c(/C=C/C(=O)N/N=C/c2ccccc2)c1" , name the class its growth places it in. mid

Place this compound in its band: "Cc1[nH]c(C(=O)Nc2ccc(C(=O)N3CCNCC3)cc2OC(C)C)c(Cl)c1Cl" hi

###

Tested on: MDA-MB-435 melanoma
procedure text: NCI-60 one-dose screen, 48 h (100 = growth as untreated, 0 = no growth, -100 = all killed)
measurement setup: 10 µM unless noted
This is part of a sample that, as a whole, favours compounds with a hit. Of some 83,000 tested, about 20% had one in any assay.
Rule: growth below 10% gives 1, anything at or above gives 0.

{"compound": "CN1CCN(c2ccc(-c3cc4c(Nc5ccc(F)c(Cl)c5)ncnn4c3)cc2)CC1", "group label": 0}

Is the reported growth for "O=C(Nc1ccc(F)cc1F)c1cc(F)ccc1O" strictly below 10%? 0

Given the entry "O=C(Nc1nc2ccc(F)cc2s1)c1cccnc1Nc1ccc(Cl)cc1Cl" , would its reported growth be below 10%? 0

Item "COc1ccc(-c2ncnc3c2ncn3CC#CCCl)cc1" : growth beneath 10%, strictly? 0

Consider "COc1ccc(CN2c3ccccc3Sc3ccccc32)c(F)c1" . Does its growth lie strictly below 10%? 1

Confirm or reject: growth of "COc1ccc(NC(=O)n2nc(/C=C\c3ccc(O)c(OC)c3)cc2/C=C\c2ccc(O)c(OC)c2)cc1" lies strictly below 10% 1

Is 10% strictly greater than the compound's reported growth? compound: "Cn1cc(-c2ccc3cc(-c4ccc(CC(=O)Nc5cc(C(C)(C)C)nn5C)cc4)cnc3c2)cn1" 1

Quick check: does CC(=O)CC(c1cccs1)c1c(-c2ccccc2)[nH]c2ccccc12 (configuration not stated) have growth under 10%? 0

Would you kindly verify if growth of O=C(O)C(c1ccccc1)N1C(=O)CSC1=S (configuration not stated) is strictly less than 10%? 0

Does the reported growth of "c1ccc2c(-c3nc(-c4c[nH]c5ccncc45)cs3)c[nH]c2c1" stay below 10%? 1

Bench note: check whether "COc1cc2oc(-c3ccc(O)cc3)cc(=O)c2c(O)c1-c1c(OC)cc(O)c2c(=O)cc(-c3ccc(O)cc3)oc12" shows growth below 10% 1

A record lists "N#Cc1c(-c2ccc(Cl)cc2)nc2c(c(-c3ccccc3)nn2-c2ccccc2)c1-c1ccc(O)cc1" . Is its growth below 10%? 0

Lab note: growth threshold 10%. Does this compound come in strictly under it? "N/C(=N\c1nc2ccccc2s1)NC(=O)Nc1cccc2ccccc12" 1

Would you kindly verify if growth of "Cc1ccc(-c2nc(N3CCN(CC(=O)Nc4ccc(Cl)c(C(F)(F)F)c4)CC3)c3ccccc3n2)cc1" is strictly less than 10%? 0

In the record for CC1Cc2c(ncn3c(-c4ccc(F)cc4)nnc23)N(C)c2ccccc21 (configuration not stated) , is growth less than 10%? 0

Hello, is growth of the following compound strictly smaller than 10%? "CCN(CC)CCNc1nc2ccccc2c2c(=O)c3cc(Cl)ccc3sc12" 0

API: query returns whether the compound falls strictly under 10% in growth. Query: "COc1ccc(C(=O)/C=C/c2sc(Cl)nc2Cl)cc1" 0

###

Test system: HOP-62 NSCLC
procedure text: NCI-60 one-dose screen, 48 h (100 = growth as untreated, 0 = no growth, -100 = all killed)
measurement setup: 10 µM unless noted
Compounds without any hit were thinned out: in the full panel of roughly 83,000, 20% have a hit. Activity calls are given as the source filed them. The calls were made as follows: active = growth percent below 10; inactive = the rest.
Documented growth across a set of molecules

{"molecule": "C=CCc1cc(C)ccc1NC(C(=O)NCC(=O)OC)c1ccccc1 (stereo not given)", "observed measurement": "85.5% (inactive)"}
{"molecule": "COc1ccc(OC)c(/C=C/c2nnc(Nc3ccccc3)o2)c1", "observed measurement": "106% (inactive)"}

I'm curious: which growth was measured for CCN1C(=O)N(CC)C2Nn3c(s/c(=C4\C(=O)Nc5ccccc54)c3=O)=NC21 (stereo not given) tested on HOP-62 NSCLC? 68.4% (inactive)

Request body: readout growth, system HOP-62 NSCLC, query "COc1cccc(Oc2ccccc2NC(=O)CNC(=O)c2cccc3ccccc23)c1" . Return the value. 35.3% [5 µM] (inactive)

Record lookup: for HOP-62 NSCLC, what growth belongs to "COc1cc(C(=O)c2cnc(-c3cccc4[nH]ccc34)[nH]2)cc(OC)c1OC" ? 33.8% (inactive)

Lab note: need growth with HOP-62 NSCLC for entry "O=C(CCCCCCSc1nc(-c2ccccc2)cc(-c2ccccc2)n1)NO" , please look it up. 29.5% (inactive)

Request: growth, test system HOP-62 NSCLC, entry O=C1NC(=O)C(Cn2cnc3ccccc32)N1 (stereo not given) 102% (inactive)

Missing value: growth, HOP-62 NSCLC, entry CC1CN(C2CCCCC2)C(=S)N(c2ccccc2)C1=O (stereo not given) . Fill in? 93.7% (inactive)

Write down the reported growth of COc1ccc(-c2cc3c4c(nc5ccccc5c4c2)CC(c2cc(OC)c(OC)c(OC)c2)O3)cc1 (stereo not given) , test system: HOP-62 NSCLC. 34.7% (inactive)

Which measured growth belongs to "Cc1cc(Cl)ccc1NS(=O)(=O)c1ccc(-c2cnc(C3CC3)o2)cc1" , tested on HOP-62 NSCLC? 48.5% (inactive)

###

Test system: OVCAR-4 ovarian
procedure text: NCI-60 one-dose screen, 48 h (100 = growth as untreated, 0 = no growth, -100 = all killed)
measurement setup: 10 µM unless noted
This is part of a sample that, as a whole, favours compounds with a hit. Of some 83,000 tested, about 20% had one in any assay.
growth strictly less than 40% = criterion met. Otherwise criterion not met.

Answered cases to consult:
{"compound": "OC(c1ccccc1)C(NC(Cc1ccccc1)c1ccccc1)c1ccccc1 (stereo not given)", "group label": "criterion not met"}
{"compound": "C=C1C(=O)O[C@H]2[C@H]1CC/C(COC(=O)NCCOCCOCC(=O)Nc1ccc(OC)c(C(N)=O)c1O)=C\\CC[C@@]1(C)O[C@@H]21", "group label": "criterion not met"}
{"compound": "CCOC(=O)c1nc(Nc2ccc(C(C)=O)cc2)sc1C", "group label": "criterion not met"}
{"compound": "O=c1c2cc(F)ccc2sc2c(N3CCNCC3)nc3ccccc3c12", "group label": "criterion met"}
{"compound": "Cc1ccc(-c2nc(N3CCN(C(=O)c4ccc(OC(F)(F)F)cc4)CC3)c3ccccc3n2)cc1", "group label": "criterion not met"}
{"compound": "COc1ccccc1/C=C1\\Oc2cc(OCCN3CCC(Cc4ccccc4)CC3)ccc2C1=O", "group label": "criterion not met"}
{"compound": "CC1Cc2ccccc2N1NC(=O)c1ccc(Cl)c(S(N)(=O)=O)c1 (stereo not given)", "group label": "criterion not met"}
{"compound": "C/C(=N/NC(N)=S)c1sc(Nc2cccc(Cl)c2)nc1C", "group label": "criterion not met"}

Is it true that growth reported for "COc1ccc(/C=C(\C#N)n2nnc3c(F)cccc32)cc1" is less than 40%? criterion met

Quick check: does "CN1C(=O)CNC(=O)[C@H](NC(=O)c2nc3ccccc3cc2O)CSSC[C@H]1C(=O)NCCCc1nc2ccccc2cc1O" have growth under 40%? criterion not met

Lab log: compare recorded growth with 40%; is it strictly lower for COc1ccc(C(Cc2ccccc2)NCCN2CCOCC2)cc1 (stereo not given) ? criterion not met

I'd appreciate it if you could check whether "S=c1nc(-c2ccccc2)oc(=NC2CCCCC2)n1C1CCCCC1" has growth smaller than 40%. criterion met

Take the compound "COc1cc2cc(Oc3ccc(NC(=O)Nc4ccc(Cl)c(Cl)c4)cc3)c(C)nc2cc1OCCN1CCOCC1" and say whether its growth is less than 40%. criterion not met

Answer whether the compound "CCCCn1c(-c2ccc(-c3nc(-c4ccc(Cl)cc4)no3)cc2)nc(-c2ccccc2)c1-c1ccccc1" has growth strictly less than 40% criterion not met

Bench note: check whether CC([C@H]1CCC2C3CCC4C[C@@H](NC=O)CC[C@]4(C)C3CC[C@@]21C)N(C)C (stereo not given in full) shows growth below 40% criterion met

Please state whether growth is below 40% for "Cc1ccc(-c2nc(N3CCN(CC(=O)Nc4ccc(Cl)cc4)CC3)c3ccccc3n2)cc1" criterion not met

Determine if O=C(CS(=O)c1oc(-c2cccs2)nc1S(=O)(=O)c1ccc(Br)cc1)c1ccccc1 (stereo not given) shows growth strictly lower than 40%. criterion not met
